Hello, the source for this data is the supplement of paper PMC6522484, in case you need it.

Tested on: DLD1
assayProcedure: TCF/Wnt firefly luciferase reporter signal relative to plate median (fraction of plate median); higher = higher Wnt reporter signal
testContext: 5 µM; treatment time 24 h; reporter: 7TFP
# reported TCF/Wnt firefly luciferase reporter signal; entries follow
Would you mind answering with just the numeric figure?

- compound: "NC(=O)N/N=C/c1ccc([N+](=O)[O-])o1"
  valueReported: 0.973
- compound: "C=C1CC[C@H](O)C/C1=C/C=C1\\CCC[C@]2(C)[C@@H]([C@H](C)CCCC(C)C)CC[C@@H]12"
  valueReported: 0.84
- compound: "OCCc1ccccc1"
  valueReported: 1.16
- compound: "C[C@@H]1Cc2cc(O)cc(O)c2C(=O)O1 [6-Hydroxymellein]"
  valueReported: 0.927
- compound: "NC(=O)c1ncn([C@@H]2O[C@H](CO)[C@@H](O)[C@H]2O)n1"
  valueReported: 1.22

Identify the measured TCF/Wnt firefly luciferase reporter signal of O=CN(O)CCCC(NC(=O)C(CO)NC(=O)C1COC(c2ccccc2O)=N1)C(=O)NCCC(=O)NC1CCCN(O)C1=O (stereo not drawn) [Oxachelin] for DLD1.
1.11

What value of TCF/Wnt firefly luciferase reporter signal on DLD1 does Nc1ccc(S(=O)(=O)Nc2ncccn2)cc1 have?
1.05

Which TCF/Wnt firefly luciferase reporter signal is reported with DLD1 for this entry: OCC(O)CN1CCN(c2ccccc2)CC1 (stereo not drawn) ?
0.83
